target: Acetylcholinesterase (Electrophorus electricus, UniProt O42275); assay: Compound was evaluated for the inhibition of acetylcholinesterase in electric eel
Sequence (O42275 whole entry): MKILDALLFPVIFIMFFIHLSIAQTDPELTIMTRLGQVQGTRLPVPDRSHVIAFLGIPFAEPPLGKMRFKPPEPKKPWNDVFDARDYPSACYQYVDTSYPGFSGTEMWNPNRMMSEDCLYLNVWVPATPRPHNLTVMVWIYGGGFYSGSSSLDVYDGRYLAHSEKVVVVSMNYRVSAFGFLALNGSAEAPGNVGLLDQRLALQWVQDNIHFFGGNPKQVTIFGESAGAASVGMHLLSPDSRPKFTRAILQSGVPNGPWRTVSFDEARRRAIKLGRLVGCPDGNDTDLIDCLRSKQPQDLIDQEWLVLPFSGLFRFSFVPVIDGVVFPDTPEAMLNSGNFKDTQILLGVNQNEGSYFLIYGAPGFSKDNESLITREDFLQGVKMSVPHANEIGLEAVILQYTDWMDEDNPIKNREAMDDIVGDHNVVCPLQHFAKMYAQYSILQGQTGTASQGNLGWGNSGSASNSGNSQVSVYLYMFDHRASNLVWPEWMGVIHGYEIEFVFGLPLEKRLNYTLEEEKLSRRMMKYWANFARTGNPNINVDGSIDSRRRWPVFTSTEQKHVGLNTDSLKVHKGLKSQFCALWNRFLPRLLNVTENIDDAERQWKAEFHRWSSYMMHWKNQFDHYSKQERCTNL
pIC50: −log10 of the molar value.
Measurement Label: pIC50

> print(dat)
                               input.smiles  measurement.label  recorded.result
1  CN(C)c1ccc(CC(=O)NCCCCCCCCCCNC23CC4CC(CC(C4)C2)C3)cc1              pIC50             4.85

---

biological target: Acetylcholinesterase (Torpedo californica, UniProt P04058)
Sequence (P04058 whole entry): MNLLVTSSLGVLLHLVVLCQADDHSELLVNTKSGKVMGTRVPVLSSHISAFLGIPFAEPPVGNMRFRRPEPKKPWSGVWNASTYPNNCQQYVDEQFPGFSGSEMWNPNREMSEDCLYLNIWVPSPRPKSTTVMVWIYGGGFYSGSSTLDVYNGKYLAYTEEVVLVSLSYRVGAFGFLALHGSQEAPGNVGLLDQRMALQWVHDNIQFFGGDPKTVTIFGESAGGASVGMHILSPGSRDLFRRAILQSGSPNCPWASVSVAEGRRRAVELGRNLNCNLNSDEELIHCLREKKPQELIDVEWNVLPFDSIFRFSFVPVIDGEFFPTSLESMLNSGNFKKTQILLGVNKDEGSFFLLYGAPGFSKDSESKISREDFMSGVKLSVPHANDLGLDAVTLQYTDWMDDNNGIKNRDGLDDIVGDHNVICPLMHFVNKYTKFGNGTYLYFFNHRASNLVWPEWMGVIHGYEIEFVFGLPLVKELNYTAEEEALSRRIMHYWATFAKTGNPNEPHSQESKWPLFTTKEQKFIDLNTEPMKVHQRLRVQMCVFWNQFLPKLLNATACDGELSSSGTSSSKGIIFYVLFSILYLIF
Measurement Label: IC50 (µM)

> print(dat)
                               input.smiles  unit.abbrev  recorded.result
1  CN(C)c1ccc(CC(=O)NCCCCCCCCCCCCNC23CC4CC(CC(C4)C2)C3)cc1           µM              3.3

---

Quick note: these are IC50 numbers for system: Acetylcholinesterase (Bos taurus, UniProt P23795)
Sequence (P23795 whole entry): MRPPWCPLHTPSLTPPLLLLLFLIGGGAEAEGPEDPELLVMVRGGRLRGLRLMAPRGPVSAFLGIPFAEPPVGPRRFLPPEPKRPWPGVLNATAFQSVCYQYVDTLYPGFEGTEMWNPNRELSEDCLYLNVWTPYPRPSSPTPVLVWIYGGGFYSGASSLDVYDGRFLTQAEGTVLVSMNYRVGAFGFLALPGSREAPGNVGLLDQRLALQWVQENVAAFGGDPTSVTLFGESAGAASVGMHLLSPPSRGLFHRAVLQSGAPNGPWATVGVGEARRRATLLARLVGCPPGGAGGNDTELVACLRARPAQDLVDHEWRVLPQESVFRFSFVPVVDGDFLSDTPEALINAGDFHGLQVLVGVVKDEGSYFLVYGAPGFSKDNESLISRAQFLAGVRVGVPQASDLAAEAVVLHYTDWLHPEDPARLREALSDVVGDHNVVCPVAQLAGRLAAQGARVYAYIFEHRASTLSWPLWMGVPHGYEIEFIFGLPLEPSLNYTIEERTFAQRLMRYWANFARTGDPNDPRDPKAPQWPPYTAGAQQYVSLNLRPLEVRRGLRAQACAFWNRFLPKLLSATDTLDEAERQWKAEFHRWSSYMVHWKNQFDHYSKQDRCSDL
Measurement Label: IC50

> print(dat)
                               input.smiles                               measured.on  recorded.result
1  CN(C)c1ccc(CC(=O)NCCCCCCCCCCCCNC23CC4CC(CC(C4)C2)C3)cc1  Acetylcholinesterase (Bos taurus, UniProt P23795)            19 µM
2  CN(C)c1ccc(CC(=O)NCCCCCCCCCCNC23CC4CC(CC(C4)C2)C3)cc1  Acetylcholinesterase (Bos taurus, UniProt P23795)            95 µM
